target: human MCH-1R (human, UniProt Q99705 1-353); assay: cell-based or functional assay
Sequence (Q99705 whole entry, form in doubt): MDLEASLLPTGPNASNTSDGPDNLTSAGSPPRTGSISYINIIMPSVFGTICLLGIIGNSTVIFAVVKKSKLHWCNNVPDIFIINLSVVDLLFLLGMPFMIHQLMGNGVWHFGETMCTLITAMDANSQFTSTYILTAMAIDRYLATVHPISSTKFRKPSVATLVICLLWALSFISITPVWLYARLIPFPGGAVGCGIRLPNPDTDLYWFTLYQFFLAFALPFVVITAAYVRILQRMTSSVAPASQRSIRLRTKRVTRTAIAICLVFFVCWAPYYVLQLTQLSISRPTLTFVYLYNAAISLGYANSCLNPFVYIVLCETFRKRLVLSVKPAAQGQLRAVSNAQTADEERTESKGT
Bridges are numbered along the chain shown (N, C = ends). Where no end group is shown, it is not given here.
What EC50 (aequorin functional assay) was measured for each of the following?
Hi! Could you send only the number? It should be in nM, unit omitted.

Ask: Return reported EC50 (aequorin functional assay); argument: DFDMLRCMAGRVYRPCWQV (disulfide 7-16, also called Ala^9) [SEQ. ID. NO. 48]
Reply: 22

Ask: Look at this binder and give its reported EC50 (aequorin functional assay). DFDMLRCMLGRAYRPCWQV (disulfide 7-16, also called Ala^12) [SEQ. ID. NO. 50]
Reply: 38.3

Ask: Need EC50 (aequorin functional assay) of DFDMLRCMLGRVARPCWQV (disulfide 7-16, also called Ala^13) [SEQ. ID. NO. 51] , thanks.
Reply: 2300

Ask: // returns reported EC50 (aequorin functional assay) for input DFDMARCMLGRVYRPCWQV (disulfide 7-16, also called Ala^5) [SEQ. ID. NO. 45]
Reply: 20.3

Ask: Fill in the blank: the reported EC50 (aequorin functional assay) of DFDMLRCMLGRVYRACWQV (disulfide 7-16, also called Ala^15) [SEQ. ID. NO. 53] is ____.
Reply: 34.7

Ask: What value of EC50 (aequorin functional assay) has been reported for the following binder? DADMLRCMLGRVYRPCWQV (disulfide 7-16, also called Ala^2) [SEQ. ID. NO. 42]
Reply: 9.9
